- Test system: 192522-019-R-J2-PDC complex tumor spheroid viability
- test name: Anticancer human tumor 192522-019-R-J2-PDC patient-derived colon adenocarcinoma cell line growth inhibition [POLQ]
- condition notes: second compound 10 µM; first compound 0.0316 µM; stronger effect = lower value
Documented viability, T/C across a set of compounds
measurement kind: viability, T/C (%)

{"compound": "CNCc1ccc(-c2[nH]c3cc(F)cc4c3c2CCNC4=O)cc1 + Nc1ccc(C#CCN(C(=O)Cc2ncc(C(F)(F)F)cc2C(F)(F)F)c2ccc(F)cc2)nn1", "observed value": 108}
{"compound": "O=c1[nH]cc(F)c(=O)[nH]1 + Nc1ccc(C#CCN(C(=O)Cc2ncc(C(F)(F)F)cc2C(F)(F)F)c2ccc(F)cc2)nn1", "observed value": 116}
{"compound": "CCc1cc2c(N3CCc4c(cc(Cn5ccnc5)cc4-c4cn(C)nc4C(F)(F)F)C3=O)cc(C)nc2c(OC)n1 + COC1C(OC(N)=O)C(O)C(Oc2ccc3c(O)c(NC(=O)c4ccc(O)c(CC=C(C)C)c4)c(=O)oc3c2C)OC1(C)C", "observed value": 102}

---

- Tested on: 192522-019-R-J2-PDC complex tumor spheroid viability
- test name: Anticancer human tumor 192522-019-R-J2-PDC cell line growth inhibition [POLQ];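 further: spheroids exposed to drugs for seven days before reading; 100% = DMSO vehicle control viability in luminescence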
- condition notes: second compound 1 µM; first compound 0.0316 µM; stronger effect = lower value
Documented viability, T/C across a set of compounds

{"compound": "COc1cccc2c1C(=O)c1c(O)c3c(c(O)c1C2=O)CC(O)(C(=O)CO)CC3OC1CC(N)C(O)C(C)O1 (stereo not given) + Nc1ccc(C#CCN(C(=O)Cc2ncc(C(F)(F)F)cc2C(F)(F)F)c2ccc(F)cc2)nn1", "system name": "192522-019-R-J2-PDC complex tumor spheroid viability", "viability, T/C (%)": 88.6}
{"compound": "CC1COCCN1c1cc(C2(O)CC3CCC(C2)O3)c2cnn(-c3ccn[nH]3)c2n1 (stereo not given) + COC1C(OC(N)=O)C(O)C(Oc2ccc3c(O)c(NC(=O)c4ccc(O)c(CC=C(C)C)c4)c(=O)oc3c2C)OC1(C)C", "system name": "192522-019-R-J2-PDC complex tumor spheroid viability", "viability, T/C (%)": 96.3}
{"compound": "O=C(Nc1ccc(O)c(NS(=O)(=O)c2ccc(F)cc2)c1)c1ccc(-c2ccccc2)cc1 + Cc1cccc(N(C)C(=O)C2C(O)CCN2c2nc(C)cc(C(F)(F)F)c2C#N)c1", "system name": "192522-019-R-J2-PDC complex tumor spheroid viability", "viability, T/C (%)": 113}
{"compound": "CC1COCCN1c1cc(C2(S(C)(=N)=O)CC2)nc(-c2ccnc3[nH]ccc23)n1 (stereo not given) + Nc1ccc(C#CCN(C(=O)Cc2ncc(C(F)(F)F)cc2C(F)(F)F)c2ccc(F)cc2)nn1", "system name": "192522-019-R-J2-PDC complex tumor spheroid viability", "viability, T/C (%)": 103}
{"compound": "CC[C@@]1(O)C(=O)OCc2c1cc1n(c2=O)Cc2cc3c(CN(C)C)c(O)ccc3nc2-1 + COC1C(OC(N)=O)C(O)C(Oc2ccc3c(O)c(NC(=O)c4ccc(O)c(CC=C(C)C)c4)c(=O)oc3c2C)OC1(C)C", "system name": "192522-019-R-J2-PDC complex tumor spheroid viability", "viability, T/C (%)": 84.8}
